# measured.on: T1, TNFR1 (Homo sapiens, UniProt P19438)
# T1 chain: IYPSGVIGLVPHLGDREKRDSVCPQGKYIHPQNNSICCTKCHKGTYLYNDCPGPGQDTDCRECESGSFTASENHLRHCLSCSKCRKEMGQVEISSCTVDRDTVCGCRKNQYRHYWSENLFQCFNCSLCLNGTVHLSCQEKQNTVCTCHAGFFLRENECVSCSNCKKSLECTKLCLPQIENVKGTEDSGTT
# assay.comment: yeast display SC50
metric.name: apparent Kd (screen) (nM)
Numbers only; they are read as nM.

Query: Item L25C (designed binder) SMEEEVEKAAKEYEKKKKEAIEKHCEKLKAKDKEAAERFLKELEEAAKEYAKDEAKTMSEEEAKRRAKKYKEKVLLSELSEEEQKEIKEAEEKLVRTILKYVEEAAK has what recorded apparent Kd (screen)?
Reply: 1.4
